- applied conditions: 303.15 K; 100 kPa
Decision: viscosity >= 3 mPa·s yields satisfied, all other cases yield not satisfied.

Dear colleague, could you confirm whether `CC/C=C\CCO` has viscosity at or above 3 mPa·s? not satisfied

Follow-up item: `CCCCCCCO` satisfied

Follow-up item: `CCCCN(CCC#N)CCCC` not satisfied

Follow-up item: `CS(C)=O` not satisfied

Follow-up item: `OC1CCCCC1` satisfied

Follow-up item: `COP(=O)([O-])OC.C[N+]1(CCO)CCCC1` satisfied

Follow-up item: `CCCCCCn1cc[n+](C)c1.O=S(=O)([N-]S(=O)(=O)C(F)(F)F)C(F)(F)F` satisfied

----------
- protocol: xn = mol fraction of the nth substance listed
- applied conditions: 308.15 K; 101 kPa; x2 = 0.7
Kindly state viscosity for each of the entries shown.
Hi! Could you send only the number? It should be in mPa·s, unit omitted.

Fill in the blank: the reported viscosity of CCCCCCCO + CO is ____. 1.267

Follow-up item: CCCCCCCO + CCCO 2.236

Follow-up item: CCCCCCCO + CCCCO 2.785

Follow-up item: CCCCCCCO + CCO 1.682

----------
Kindly state viscosity for each of the entries shown.
- protocol: xn = mol fraction of the nth substance listed
- applied conditions: 308.15 K; 101 kPa; x2 = 0.15
Hi! Could you send only the number? It should be in mPa·s, unit omitted.

Fill in the blank: the reported viscosity of CCCCCCCO + CCCO is ____. 3.762

Follow-up item: CCCCCCCO + CCO 3.607

Follow-up item: CCCCCCCO + CO 3.487

Follow-up item: CCCCCCCO + CCCCO 3.965

Follow-up item: CCN(CC)CCO + O=C1CCCCC1 2.228

----------
- protocol: xn = mol fraction of the nth substance listed
- applied conditions: 318.15 K; 101 kPa; x2 = 0.7
Kindly state viscosity for each of the entries shown.
Hi! Could you send only the number? It should be in mPa·s, unit omitted.

Fill in the blank: the reported viscosity of CCCCCCCO + CO is ____. 1.056

Follow-up item: CCCCCCCO + CCCCO 2.155

Follow-up item: CCCCCCCO + CCO 1.369

Follow-up item: CCCCCCCO + CCCO 1.748

----------
Kindly state viscosity for each of the entries shown.
- protocol: xn = mol fraction of the nth substance listed
- applied conditions: 318.15 K; 101 kPa; x2 = 0.5
Hi! Could you send only the number? It should be in mPa·s, unit omitted.

Fill in the blank: the reported viscosity of CCN(CC)CCO + O=C1CCCCC1 is ____. 1.24

Follow-up item: CCCCCCCO + CCCO 2.136

Follow-up item: CCCCCCCO + CO 1.592

Follow-up item: CCCCCCCO + CCO 1.805

----------
- applied conditions: 308.15 K; 101 kPa
± gives the uncertainty stated by the source.
measured attribute: viscosity
Remember to put the unit after the number in your answer.

Fill in the blank: the reported viscosity of `OC1CCCCC1` is ____. 27.95 ± 5.6 mPa·s

Follow-up item: `CCCCCCn1cc[n+](C)c1.O=S(=O)([N-]S(=O)(=O)C(F)(F)F)C(F)(F)F` 50.4 ± 0.7 mPa·s

Follow-up item: `CC(=O)O.NCCO` 1369 ± 160 mPa·s

Follow-up item: CC1(C)OCC(CO)O1 (centres undefined) 6.834 ± 0.16 mPa·s
